# Test Description: compounds altering circadian rhythm period length – cell-based, LOPAC library, luminescence reporter (AID 2774);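 further: values are relative to mean of DMSO wells on each plate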
# Stated Conditions: circadian reporter cells, at 7 µM, actives lie on both sides
Calls of active or inactive are those of the source. How the calls were made is not given here.
Experimental Endpoint: period change

Compound	period change
CN1CCN2c3ccccc3Cc3ccccc3C2C1 (stereo unspecified)	0.145 h (inactive)
Cc1oncc1C(=O)Nc1ccc(C(F)(F)F)cc1	0.35 h (inactive)
CN(C)[C@@H]1C(=O)C(C(N)=O)=C(O)[C@@]2(O)C(=O)C3=C(O)c4c(O)ccc(Cl)c4[C@@H](O)[C@H]3C[C@@H]12	0.065 h (inactive)
CC(C)COCC(CN(Cc1ccccc1)c1ccccc1)N1CCCC1 (stereo unspecified)	0.04 h (inactive)
NC1CCN(c2cccc(Cl)n2)CC1	-0.02 h (inactive)

Next:
Qu. Which period change is reported for this compound? O=C(O)CCCCCCCC(=O)O
Ans. 0.115 h (inactive)
